Reported Percentage of ASF killed at 100 ppm values are given for each entry in this list.
Test system: Stomoxys calcitrans (stable fly)
Test: Adult stable fly test, serum-saturated dental wick
Type: in vivo
Conditions: 100 ppm in bovine serum, readings at 24 and 48 hours, which one is reported is not stated
Reply with just the number (in %).

>  <Compound>
CCC1CCCC(OC2CCC(N(C)C)C(C)O2)C(C)C(=O)[C@H]2CC3C4CC(OC5OC(C)C(OC)CC5OC)CC4CCC3C2CC(=O)O1 (stereo partly drawn)

>  <Study Target>
Stomoxys calcitrans (stable fly)

>  <Percentage of ASF killed at 100 ppm, %>
100

$$$$

CCC1CCCC(OC2CCC(N(C)C)C(C)O2)C(C)C(=O)C2=CC3C4CC(OC5OC(C)C(OC)C(OC)C5OC(=O)c5ccc(C(F)(F)F)cc5)CC4[C@@]4(C)O[C@H]4C3C2CC(=O)O1 (stereo partly drawn) has a reported Percentage of ASF killed at 100 ppm of 100
